assay: Cytotoxicity against human HEK293 cells assessed as reduction in cell viability after 48 hrs by Alamar blue assay; assay type: cell-based
A collection of compounds and their measured CC50 at 48 h
Answer format: numeric, µM implied, no suffix.

Worked cases, answers included:
record.smiles	CC50 at 48 h, µM
O=S(=O)(Nc1ccc2oc(-c3ccccc3)nc2c1)c1ccccc1O	33
O=S(=O)(Nc1ccc(-c2nc3ccccc3o2)cc1)c1ccc(C(F)(F)F)cc1	94
COc1ccc(Cl)cc1S(=O)(=O)Nc1ccc(-c2nc3ccccc3o2)cc1	75
O=S(=O)(Nc1ccc(-c2nc3ccccc3o2)cc1)c1ccc(Cl)c(C(F)(F)F)c1	69

The record that follows has no CC50 at 48 h shown yet.
Q: // query CC50 at 48 h value for entry O=[N+]([O-])c1cc(S(=O)(=O)Nc2ccc(-c3nc4ccccc4o3)cc2)ccc1Cl
Result: 85
